Recorded Inhibition % by entry
Biological target: Parkinson's disease protein 7 (PARK7/DJ1) (human)
Sequence (Q99497 whole entry, looked up): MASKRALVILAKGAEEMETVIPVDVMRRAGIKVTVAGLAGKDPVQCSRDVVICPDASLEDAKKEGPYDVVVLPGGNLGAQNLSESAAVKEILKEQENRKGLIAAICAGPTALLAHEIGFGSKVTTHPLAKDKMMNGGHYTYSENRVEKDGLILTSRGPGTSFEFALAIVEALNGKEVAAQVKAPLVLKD
Experiment: primary screen, percent inhibition; read as competition with a fluorescent probe by fluorescence polarization; higher = more effect of the substance
Details: 100 µM
In all, about 7,900 compounds went through this assay and about 400 (5.1%) showed an effect of 50% or more. The full list was thinned out, with strong results kept by preference.
// return numeric value only (unit: %, not printed)

Solved cases (4 shown):
>  <COMPOUND>
C=CC(=O)Nc1cccc(NC(C)=O)n1

>  <MEASURED ON>
Parkinson's disease protein 7 (PARK7/DJ1) (human)

>  <Inhibition %, %>
-0.654

$$$$
>  <COMPOUND>
C=CC(=O)N1CCC(CCC#N)CC1

>  <MEASURED ON>
Parkinson's disease protein 7 (PARK7/DJ1) (human)

>  <Inhibition %, %>
8.36

$$$$
>  <COMPOUND>
C=CC(=O)N1CCOCC1CC(F)F (stereo not shown)

>  <MEASURED ON>
Parkinson's disease protein 7 (PARK7/DJ1) (human)

>  <Inhibition %, %>
17

$$$$
>  <COMPOUND>
COC(=O)Cc1csc(NC(=O)CCl)n1

>  <MEASURED ON>
Parkinson's disease protein 7 (PARK7/DJ1) (human)

>  <Inhibition %, %>
20.2

$$$$

Query compound follows.
[in] Name the recorded Inhibition % of the compound listed here: Cc1cc(S(=O)(=O)F)ccc1C(=O)O
[out] 85.1
